# target.entity: Aurora-A(h) (Homo sapiens)
# Construct: purchased Millipore (KinaseProfiler service); also Reaction Biology Corp. (Kinase Hotspot)
# Sequence (O14965 1-403): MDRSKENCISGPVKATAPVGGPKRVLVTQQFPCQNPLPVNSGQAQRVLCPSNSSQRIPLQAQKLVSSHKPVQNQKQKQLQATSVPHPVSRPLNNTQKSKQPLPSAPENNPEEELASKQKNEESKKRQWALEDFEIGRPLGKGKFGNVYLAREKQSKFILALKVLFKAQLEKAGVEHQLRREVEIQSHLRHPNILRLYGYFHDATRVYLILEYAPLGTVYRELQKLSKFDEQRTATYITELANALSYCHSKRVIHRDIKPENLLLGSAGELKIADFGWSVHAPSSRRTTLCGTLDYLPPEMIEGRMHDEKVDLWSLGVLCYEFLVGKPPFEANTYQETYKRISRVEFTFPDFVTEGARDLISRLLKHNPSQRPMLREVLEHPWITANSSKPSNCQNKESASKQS
# assay.explanation: Aurora-A kinase assay (KinaseProfiler Service Assay Protocols, Millipore; also Kinase Hotspot, Reaction Biology Corp.)
# Assay type: biochemical
# particulars: compound concentration 1 μM
Catalogue of inhibition at 1 µM readings, one per entry.

molecule: Cc1cc(Nc2nc(NCCCN3CCOCC3)nc(Sc3ccc(NC(=O)C4CC4)cc3)n2)n[nH]1 [Example 90]
target.entity: Aurora-A(h) (Homo sapiens)
inhibition at 1 µM: > 90%
--
molecule: CN1CCN(c2nc(Nc3ccc(Br)cn3)nc(Sc3ccc(NC(=O)C4CC4)cc3)n2)CC1 [Example 123]
target.entity: Aurora-A(h) (Homo sapiens)
inhibition at 1 µM: > 50%
--
molecule: Cc1cnc(Nc2nc(Sc3ccc(NC(=O)C4CC4)cc3)nc(N3CCOCC3)n2)s1 [Example 21]
target.entity: Aurora-A(h) (Homo sapiens)
inhibition at 1 µM: > 90%
--
molecule: CCc1nc(Nc2ncc(C)s2)nc(Sc2ccc(NC(=O)C3CC3)cc2)n1 [Example 58]
target.entity: Aurora-A(h) (Homo sapiens)
inhibition at 1 µM: < 50%
